Origin of the recorded values: ChEMBL document CHEMBL3988442

- target or system: Chromo domain-containing protein 1 (Saccharomyces cerevisiae (strain ATCC 204508 / S288c) (Baker's yeast))
- run description: ScCHD-1 Enzyme Inhibition Assay
- Type: functional
- Design: scale not given: in the data most compounds retested in dose-response had high values
- condition: 30 µM
Percent Effect listing for selected compounds.

Look over these answered cases.
O=C(Cc1ccc(F)cc1)N1CCCCC1c1ccn2ccnc2n1 (stereo not given): -17.6%
O=C(CN1C=Nc2ccccc2S1(=O)=O)NCCc1cccs1: -10.2%
CS(=O)(=O)N1CCCN(C(=O)c2ccc(Cn3ccccc3=O)o2)CC1: -7.1%
O=C(C1=CCCC1)N1CCC[C@]2(C[C@@H](Oc3ncccc3F)CO2)C1: -3.32%

Now for another entry.
Challenge: Can you share its Percent Effect? I mean this compound: O=C(NCCNc1ncccn1)N1CCN(Cc2cccnc2)CC1
Response given: -14.1%
